Just for reference, ChEMBL document CHEMBL1126428 is where these values come from.

- Measured On: Inositol monophosphatase 1 (Bos taurus, UniProt P20456)
- Sequence (P20456 whole entry): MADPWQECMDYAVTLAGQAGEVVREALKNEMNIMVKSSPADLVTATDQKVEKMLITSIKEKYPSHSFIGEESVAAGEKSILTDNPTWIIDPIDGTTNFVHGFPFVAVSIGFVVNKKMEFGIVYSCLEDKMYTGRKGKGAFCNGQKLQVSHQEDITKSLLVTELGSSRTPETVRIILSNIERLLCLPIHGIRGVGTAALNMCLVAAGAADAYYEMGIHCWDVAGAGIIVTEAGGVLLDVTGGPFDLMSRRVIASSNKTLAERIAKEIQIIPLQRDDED
pIC50: −log10 of the molar value.
Assay Metric: pIC50

> print(dat)
                                   compound                               measured.on  assay.value
1   CN(C)c1ccc(C(O)(P(=O)(O)O)P(=O)(O)O)cc1  Inositol monophosphatase 1 (Bos taurus, UniProt P20456)         3.85
2      O=P(O)(O)C(O)(c1ccc(Cl)cc1)P(=O)(O)O  Inositol monophosphatase 1 (Bos taurus, UniProt P20456)         4.44
3  CC(O)(P(=O)(O)O)P(=O)(O)O [ETIDRONIC ACID]  Inositol monophosphatase 1 (Bos taurus, UniProt P20456)         3.96
4          O=P(O)(O)C(O)(c1ccccc1)P(=O)(O)O  Inositol monophosphatase 1 (Bos taurus, UniProt P20456)         4.54
5         O=P(O)(O)C(O)(Cc1ccccc1)P(=O)(O)O  Inositol monophosphatase 1 (Bos taurus, UniProt P20456)         4.42
